Tested on: ATP;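 further: ATP exposure 15 min at 22 °C before imaging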
Test: switch fluorescence ratio, 500 uM ATP over buffer (Cy3 cluster intensity, sum of 5 cycles each) (fold (ratio)); higher = stronger signal-on switching upon ATP binding; sequences stand for … in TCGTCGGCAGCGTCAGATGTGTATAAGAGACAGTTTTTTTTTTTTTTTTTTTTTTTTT…TC
Conditions: aptamer strand: ATP DNA aptamer (quencher-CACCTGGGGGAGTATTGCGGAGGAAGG + anchor), 100 nM annealed; ATP concentration: 500 uM
Reported switch fluorescence ratio by item:
Number, no unit, nothing else.

For orientation, consider the following solved cases.
RESIDUES: TTTCTTTGGG
switch fluorescence ratio: 0.998
//
RESIDUES: ATAAAGAAGC
switch fluorescence ratio: 1.02
//
RESIDUES: TGTGCAATGT
switch fluorescence ratio: 1.3

sequence GCTGTAGAAG , switch fluorescence ratio observed: 0.995

sequence AACGAGTGTC , switch fluorescence ratio observed: 1.09

sequence AGTTTTTGTT , switch fluorescence ratio observed: 0.987

sequence TCGGGGGGAC , switch fluorescence ratio observed: 1.03

sequence GTCTATATGG , switch fluorescence ratio observed: 0.997

sequence GGGAGCAAAG , switch fluorescence ratio observed: 1.04

sequence CGAGTGGAGG , switch fluorescence ratio observed: 1.03

sequence ACATAATGCC , switch fluorescence ratio observed: 0.933

sequence ATGGGGGTTC , switch fluorescence ratio observed: 0.992

sequence CATTGATGTG , switch fluorescence ratio observed: 1

sequence GAAGGTCAGT , switch fluorescence ratio observed: 0.971

sequence CCATTCTCTC , switch fluorescence ratio observed: 0.974

sequence AAGATGGTCA , switch fluorescence ratio observed: 0.993

FYI, the data here is from the supplement of paper PMC10126150.
